# target.under.test: recombinant human pancreatic GLK (Homo sapiens, UniProt P35557)
# Sequence (P35557 1-465): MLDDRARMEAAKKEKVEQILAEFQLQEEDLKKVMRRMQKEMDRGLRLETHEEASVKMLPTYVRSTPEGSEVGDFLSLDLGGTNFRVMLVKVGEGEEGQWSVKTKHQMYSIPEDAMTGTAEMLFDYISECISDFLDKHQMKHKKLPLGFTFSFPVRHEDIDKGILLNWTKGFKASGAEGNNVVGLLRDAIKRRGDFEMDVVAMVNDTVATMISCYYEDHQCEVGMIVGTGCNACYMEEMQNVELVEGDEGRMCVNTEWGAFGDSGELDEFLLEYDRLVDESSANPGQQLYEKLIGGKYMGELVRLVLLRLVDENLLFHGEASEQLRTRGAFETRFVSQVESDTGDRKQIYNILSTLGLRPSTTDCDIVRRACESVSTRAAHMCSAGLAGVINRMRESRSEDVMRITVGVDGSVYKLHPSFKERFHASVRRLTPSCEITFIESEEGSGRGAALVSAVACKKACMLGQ
# experiment: biochemical
assay.metric: pEC50
Reminder that pEC50 means the negative base-10 logarithm of the concentration expressed in mol/L.

Given the molecule C[C@@H](CO)Oc1cc(Oc2cc3c(cc2F)S(=O)(=O)CCCO3)cc(C(=O)Nc2ccn(C)n2)c1 , what is its reported pEC50? 7.42
